These measurements were taken from ChEMBL document CHEMBL1156906.

targetOrTestSystem: Broad substrate specificity ATP-binding cassette transporter ABCG2 (Homo sapiens)
Sequence (Q9UNQ0 whole entry): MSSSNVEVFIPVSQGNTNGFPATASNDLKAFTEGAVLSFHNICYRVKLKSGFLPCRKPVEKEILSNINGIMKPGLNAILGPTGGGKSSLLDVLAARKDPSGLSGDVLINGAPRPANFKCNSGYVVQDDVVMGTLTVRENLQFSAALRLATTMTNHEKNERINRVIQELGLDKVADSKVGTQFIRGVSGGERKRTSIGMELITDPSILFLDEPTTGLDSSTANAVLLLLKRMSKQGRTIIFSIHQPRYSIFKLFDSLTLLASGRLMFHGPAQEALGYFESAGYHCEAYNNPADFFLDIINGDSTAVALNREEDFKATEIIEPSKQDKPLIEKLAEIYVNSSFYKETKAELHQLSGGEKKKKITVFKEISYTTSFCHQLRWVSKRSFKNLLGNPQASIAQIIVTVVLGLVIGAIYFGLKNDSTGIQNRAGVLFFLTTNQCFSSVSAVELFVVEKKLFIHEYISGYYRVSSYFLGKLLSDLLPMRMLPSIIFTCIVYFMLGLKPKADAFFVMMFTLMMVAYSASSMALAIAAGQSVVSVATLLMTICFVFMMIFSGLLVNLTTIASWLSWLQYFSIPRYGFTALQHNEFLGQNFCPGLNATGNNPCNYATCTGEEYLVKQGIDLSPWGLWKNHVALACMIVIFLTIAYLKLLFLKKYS
experimentNotes: Inhibition of ABCG2 expressed in human NCI-H460/MX20 cells assessed as accumulation of ABCG2 substrate pheophorbide-A
readout: IC50

1) COC(Cc1ccc(O)cc1)C(=O)N/C=C/c1ccc(O)cc1 (stereo unspecified); > 100 µM
2) CO/C(=C\c1ccc(OCc2ccccc2)cc1)C(=O)N/C=C/c1ccc(O)cc1; > 100 µM
3) CO/C(=C\c1ccc(O)cc1)C(=O)NCC(O)c1ccc(O)cc1 (stereo unspecified); > 100 µM
4) O=C(/C=C/c1ccc(O)cc1)N/C=C/c1ccc(O)cc1; > 100 µM
5) COC(Cc1ccc(O)cc1)C(=O)NCCc1ccc(O)cc1 (stereo unspecified); > 100 µM
6) CO/C(=C\c1ccc(O)cc1)C(=O)O; > 100 µM
